Tested on: OVCAR-4 ovarian
Assay: NCI tumour cell line growth inhibition, 48 h
quantityName: TGI

- CC(C)Oc1cc(O)c2c(c1)OCC=C2CCC(=O)O: > 100 µM
- COc1ccc(C2CC(n3nnnc3-c3ccccc3)=NN2)cc1 (stereo not drawn): 94.8 µM

Given the compound COc1cc(C2SCC(=O)N2c2ccc(Oc3ccc(Cl)cc3)c(Cl)c2)cc(OC)c1OC (stereo not drawn) , what is its reported TGI?
> 100 µM

GET /values?readout=TGI&item= `O=C(NCCCNCCNC(=O)c1cc(-c2ccccc2)nc2ccccc12)c1cc(-c2ccccc2)nc2ccccc12`
4.08 µM

Need TGI, item `CC(=O)c1cc2ccccc2n(O)c1=N`
> 100 µM

For the compound N#C[C@@H]1C(n2ccc(N)nc2=O)O[C@H](CO)[C@H]1O (stereo partly drawn) , what TGI is on record?
> 100 µM

Using the record for CCOC(=O)[C@H]1Nc2ccc(OC)cc2C2c3ccccc3CC21 (stereo partly drawn) , report its TGI.
> 100 µM

State the recorded TGI for this entry: CC1(C)Oc2ccc(NC(=O)CCC(N)C(=O)O)cc2O1 (stereo not drawn)
> 100 µM
